# assaySystem: TRPM8 (Homo sapiens, UniProt Q7Z2W7)
# Sequence (Q7Z2W7 whole entry): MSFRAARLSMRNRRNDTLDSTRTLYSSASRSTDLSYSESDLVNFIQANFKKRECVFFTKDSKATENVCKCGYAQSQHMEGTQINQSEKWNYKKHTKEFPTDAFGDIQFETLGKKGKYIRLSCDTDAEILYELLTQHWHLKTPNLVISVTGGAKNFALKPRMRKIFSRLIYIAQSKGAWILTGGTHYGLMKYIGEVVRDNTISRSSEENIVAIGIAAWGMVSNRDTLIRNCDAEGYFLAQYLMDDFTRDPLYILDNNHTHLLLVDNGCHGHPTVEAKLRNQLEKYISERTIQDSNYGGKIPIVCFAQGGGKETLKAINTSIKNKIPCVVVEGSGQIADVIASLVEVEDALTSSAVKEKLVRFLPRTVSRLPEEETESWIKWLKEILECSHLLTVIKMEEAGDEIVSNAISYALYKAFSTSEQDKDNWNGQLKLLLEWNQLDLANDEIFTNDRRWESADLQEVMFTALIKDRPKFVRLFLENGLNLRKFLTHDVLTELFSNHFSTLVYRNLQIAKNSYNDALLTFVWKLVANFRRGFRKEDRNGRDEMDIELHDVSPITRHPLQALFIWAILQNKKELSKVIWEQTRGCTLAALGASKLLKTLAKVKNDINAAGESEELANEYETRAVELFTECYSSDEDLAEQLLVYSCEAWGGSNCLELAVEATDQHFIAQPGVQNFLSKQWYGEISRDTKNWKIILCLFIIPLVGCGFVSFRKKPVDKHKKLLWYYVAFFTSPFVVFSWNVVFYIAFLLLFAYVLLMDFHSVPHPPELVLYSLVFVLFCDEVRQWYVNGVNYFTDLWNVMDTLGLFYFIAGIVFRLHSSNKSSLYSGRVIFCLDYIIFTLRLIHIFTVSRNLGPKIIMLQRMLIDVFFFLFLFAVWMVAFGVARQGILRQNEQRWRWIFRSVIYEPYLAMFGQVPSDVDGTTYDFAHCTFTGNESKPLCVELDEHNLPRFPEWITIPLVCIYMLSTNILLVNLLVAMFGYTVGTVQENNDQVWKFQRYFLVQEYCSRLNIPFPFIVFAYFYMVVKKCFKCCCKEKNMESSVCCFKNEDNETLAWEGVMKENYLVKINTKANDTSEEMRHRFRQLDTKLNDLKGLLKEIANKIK
# protocolSummary: TRPM8 antagonist activity by Fura-2 Ca2+ imaging in HEK-293 cells stably expressing human TRPM8
# Type: cell-based
# conditionLabel: inhibition of icilin (500 nM)-evoked Ca2+ entry; HEK-293 cells stably expressing hTRPM8; mean ± SEM, three independent experiments; read-out: Functional Activity hTRPM8 potency IC50 ± SEM
Each entry falls in a class defined on IC50; the bands are bucket A: < 40 nM; bucket B: ≥ 40 nM and < 500 nM; bucket C: ≥ 500 nM

Take a look at these entries with their results.
[
  {
    "compound": "O=C(NC1CCC2(CCCC2)CC1)c1ccc(-c2ccccc2)cc1 [Compound 14]",
    "group": "bucket A"
  },
  {
    "compound": "O=C(NC1CCCC2CCCCC21)c1ccc(-c2ccccc2)cc1 (mixture of isomers) [Compound 8]",
    "group": "bucket C"
  },
  {
    "compound": "CC1CCC(C(C)C)C(NC(=O)c2ccc(-c3ccccc3)cc2)C1 (mixture of isomers) [Compound 2]",
    "group": "bucket B"
  }
]

Prompt: Which category does the recorded IC50 put O=C(NC1CCC2CCCCC2C1)c1ccc(-c2ccccc2)cc1 (mixture of isomers) [Compound 10] in?
Response: bucket A

Prompt: Same thing, different compound: O=C(NC1CCCCCC1)c1ccc(-c2ccccc2)cc1 [Compound 5]
Response: bucket B

Prompt: Lookup O=C(NC12CC3CC(CC(C3)C1)C2)c1ccc(-c2ccccc2)cc1 [Compound 15]
Response: bucket A

Prompt: One more compound: O=C(NC1CC2CCC(C2)C1)c1ccc(-c2ccccc2)cc1 (stereo not shown) [Compound 6]
Response: bucket C

Prompt: Same question, O=C(NC1CCCCC1)c1ccc(-c2ccccc2)cc1 [Compound 3] this time
Response: bucket C

Prompt: Subsequent entry: O=C(NC1CCCCCCC1)c1ccc(-c2ccccc2)cc1 [Compound 7]
Response: bucket B

---

# assaySystem: human TRPA1 (Homo sapiens, UniProt O75762)
# Sequence (O75762 whole entry): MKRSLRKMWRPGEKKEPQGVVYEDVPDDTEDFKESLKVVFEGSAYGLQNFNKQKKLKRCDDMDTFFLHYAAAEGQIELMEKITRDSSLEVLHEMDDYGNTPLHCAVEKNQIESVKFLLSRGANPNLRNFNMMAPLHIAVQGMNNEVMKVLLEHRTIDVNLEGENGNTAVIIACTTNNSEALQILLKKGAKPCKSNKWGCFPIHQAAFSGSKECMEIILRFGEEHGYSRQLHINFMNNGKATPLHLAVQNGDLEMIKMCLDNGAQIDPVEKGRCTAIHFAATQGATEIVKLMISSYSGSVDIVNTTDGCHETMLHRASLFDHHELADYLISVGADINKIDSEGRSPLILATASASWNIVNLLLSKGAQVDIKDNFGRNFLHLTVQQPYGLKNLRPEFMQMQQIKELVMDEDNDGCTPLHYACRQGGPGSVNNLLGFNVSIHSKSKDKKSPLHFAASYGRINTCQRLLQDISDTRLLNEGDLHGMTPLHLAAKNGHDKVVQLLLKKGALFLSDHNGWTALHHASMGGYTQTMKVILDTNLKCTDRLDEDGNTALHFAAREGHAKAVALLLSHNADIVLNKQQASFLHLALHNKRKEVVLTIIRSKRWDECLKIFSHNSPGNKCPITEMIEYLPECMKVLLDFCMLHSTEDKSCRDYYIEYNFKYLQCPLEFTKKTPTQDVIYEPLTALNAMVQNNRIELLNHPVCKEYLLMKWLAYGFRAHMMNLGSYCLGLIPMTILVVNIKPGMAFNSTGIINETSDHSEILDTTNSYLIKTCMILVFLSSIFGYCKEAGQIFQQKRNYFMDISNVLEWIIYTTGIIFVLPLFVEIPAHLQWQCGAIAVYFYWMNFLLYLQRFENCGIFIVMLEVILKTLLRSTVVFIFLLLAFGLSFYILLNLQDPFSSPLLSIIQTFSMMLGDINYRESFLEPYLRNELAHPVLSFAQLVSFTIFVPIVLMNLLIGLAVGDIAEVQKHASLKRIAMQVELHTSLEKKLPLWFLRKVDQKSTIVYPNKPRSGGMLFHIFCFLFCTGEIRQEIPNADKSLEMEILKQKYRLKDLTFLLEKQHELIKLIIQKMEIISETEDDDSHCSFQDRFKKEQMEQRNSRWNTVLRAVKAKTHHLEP
# protocolSummary: TRPA1 agonist and antagonist Ca2+ flux assay (FLIPR, Fluo-8) in HEK293 cells stably expressing human TRPA1
# Assay type: cell-based
# conditionLabel: tested at 1 μM; normalized to Emax of AITC (300 μM)
# hTRPA1 % Activation (n = 3-5) annotations

Use the examples below as a reference point.
[
  {
    "compound": "O=C(NC1CCc2ccccc2C1)c1ccc(-c2ccccc2)cc1 (stereo not shown)",
    "hTRPA1 % Activation (n = 3-5)": "−0.8 ± 0.6%"
  },
  {
    "compound": "O=C(NC1CCCCCCC1)c1ccc(-c2ccccc2)cc1",
    "hTRPA1 % Activation (n = 3-5)": "−1.5 ± 0.9%"
  },
  {
    "compound": "O=C(NC1CCCCCC1)c1ccc(-c2ccccc2)cc1",
    "hTRPA1 % Activation (n = 3-5)": "0.8 ± 0.5%"
  }
]

Now, please, on to the next compound.
Prompt: Returns the measured hTRPA1 % Activation (n = 3-5) for the input compound. Input: O=C(NC1CCC2(CCCCC2)CC1)c1ccc(-c2ccccc2)cc1
Response: −0.2 ± 1.1%

---

# assaySystem: UniProt:Q8NER1
# protocolSummary: TRPV1 agonist and antagonist Ca2+ flux assay (FLIPR, Fluo-8) in HEK293 cells stably expressing human TRPV1
# conditionLabel: capsaicin 100 nM; read-out: IC50, blockade of capsaicin-activated hTRPV1 responses
parameterMeasured: IC50 (nM)
Kindly provide the numeric value in nM only, without the unit symbol.

Prompt: I am curious: what IC50 value has been reported for Oc1cc2c(cc1O)CN(C(=S)NCCc1ccc(Cl)cc1)CCC2 [Capsazepine, reference compound] ?
Response: 451

---

# assaySystem: human TRPA1 (Homo sapiens, UniProt O75762)
# protocolSummary: TRPA1 agonist and antagonist Ca2+ flux assay (FLIPR, Fluo-8) in HEK293 cells stably expressing human TRPA1
# Format: cell-based
# conditionLabel: HEK293; read-out: hTRPA1 % Inhibition (n = 3)
parameterMeasured: inhibition at 0.1 µM (%)
Report as a plain number; the unit % is understood.

Here is how some molecules turned out for inhibition at 0.1 µM.
[
  {
    "molecule": "O=C(NC1CCCCCC1)c1ccc(-c2ccccc2)cc1 [Compound 5]",
    "uom": "%",
    "inhibition at 0.1 µM": -2
  },
  {
    "molecule": "O=C(NC1CCC2(CCCCC2)CC1)c1ccc(-c2ccccc2)cc1 [Compound 13]",
    "uom": "%",
    "inhibition at 0.1 µM": -1
  },
  {
    "molecule": "O=C(NC1CCC2CCCCC2C1)c1ccc(-c2ccccc2)cc1 (mixture of isomers) [Compound 10]",
    "uom": "%",
    "inhibition at 0.1 µM": -1
  }
]

--- query ---
Prompt: What does the data say about its inhibition at 0.1 µM? Entry: O=C(NC1CCCCCCC1)c1ccc(-c2ccccc2)cc1 [Compound 7]
Response: -13

---

Reported hTRPA1 % Activation (n = 3-5) values are given for each entry in this list.
# assaySystem: human TRPA1 (Homo sapiens, UniProt O75762)
# protocolSummary: TRPA1 agonist and antagonist Ca2+ flux assay (FLIPR, Fluo-8) in HEK293 cells stably expressing human TRPA1
# Format: cell-based
# conditionLabel: tested at 100 nM; normalized to Emax of AITC (300 μM)
Kindly answer with a numeric value in %, unit omitted.

Below: 4 molecules and their reported hTRPA1 % Activation (n = 3-5).
[
  {
    "molecule": "O=C(NC1CCCCCC1)c1ccc(-c2ccccc2)cc1 [Compound 5]",
    "parameterMeasured": "hTRPA1 % Activation (n = 3-5)",
    "resultValue": 0.1
  },
  {
    "molecule": "O=C(NC1CCC2CCCCC2C1)c1ccc(-c2ccccc2)cc1 (mixture of isomers) [Compound 10]",
    "parameterMeasured": "hTRPA1 % Activation (n = 3-5)",
    "resultValue": "−1.1"
  },
  {
    "molecule": "O=C(NC1CCc2ccccc2C1)c1ccc(-c2ccccc2)cc1 (centres unmarked) [Compound 11]",
    "parameterMeasured": "hTRPA1 % Activation (n = 3-5)",
    "resultValue": "−0.1"
  },
  {
    "molecule": "O=C(NC1CCCCCCC1)c1ccc(-c2ccccc2)cc1 [Compound 7]",
    "parameterMeasured": "hTRPA1 % Activation (n = 3-5)",
    "resultValue": "−1.0"
  }
]

For the next question, use this molecule.
Prompt: Quick one: hTRPA1 % Activation (n = 3-5) of O=C(NC1CCC2(CCCCC2)CC1)c1ccc(-c2ccccc2)cc1 [Compound 13] ?
Response: 0.2

---

# assaySystem: TRPM8 (Homo sapiens, UniProt Q7Z2W7)
# protocolSummary: TRPM8 antagonist activity by Fura-2 Ca2+ imaging in HEK-293 cells stably expressing human TRPM8
# Format: cell-based
# conditionLabel: read-out: Functional Activity hTRPM8 potency IC50 ± SEM
pIC50 overview
FYI, pIC50 means -log10 of a concentration in mol per litre.

Example results:
[
  {
    "compound": "O=C(NC1CCc2ccccc2C1)c1ccc(-c2ccccc2)cc1 (stereo not drawn)",
    "resultValue": 7.28
  },
  {
    "compound": "O=C(NC1CC2CCC1C2)c1ccc(-c2ccccc2)cc1 (single isomer, unassigned)",
    "resultValue": 5.15
  },
  {
    "compound": "CC(C)[C@@H]1CC[C@@H](C)C[C@H]1NC(=O)c1ccc(-c2ccccc2)cc1 [Compound 1, reference compound]",
    "resultValue": 4.80
  }
]

We next turn to a different compound, shown below.
Prompt: Tell me reported pIC50 for O=C(NC1CCCc2ccccc21)c1ccc(-c2ccccc2)cc1 (stereo not drawn) , tested with TRPM8 (Homo sapiens, UniProt Q7Z2W7).
Response: 4.26

---

# assaySystem: human TRPV1 (Homo sapiens, UniProt Q8NER1)
# Sequence (Q8NER1 whole entry): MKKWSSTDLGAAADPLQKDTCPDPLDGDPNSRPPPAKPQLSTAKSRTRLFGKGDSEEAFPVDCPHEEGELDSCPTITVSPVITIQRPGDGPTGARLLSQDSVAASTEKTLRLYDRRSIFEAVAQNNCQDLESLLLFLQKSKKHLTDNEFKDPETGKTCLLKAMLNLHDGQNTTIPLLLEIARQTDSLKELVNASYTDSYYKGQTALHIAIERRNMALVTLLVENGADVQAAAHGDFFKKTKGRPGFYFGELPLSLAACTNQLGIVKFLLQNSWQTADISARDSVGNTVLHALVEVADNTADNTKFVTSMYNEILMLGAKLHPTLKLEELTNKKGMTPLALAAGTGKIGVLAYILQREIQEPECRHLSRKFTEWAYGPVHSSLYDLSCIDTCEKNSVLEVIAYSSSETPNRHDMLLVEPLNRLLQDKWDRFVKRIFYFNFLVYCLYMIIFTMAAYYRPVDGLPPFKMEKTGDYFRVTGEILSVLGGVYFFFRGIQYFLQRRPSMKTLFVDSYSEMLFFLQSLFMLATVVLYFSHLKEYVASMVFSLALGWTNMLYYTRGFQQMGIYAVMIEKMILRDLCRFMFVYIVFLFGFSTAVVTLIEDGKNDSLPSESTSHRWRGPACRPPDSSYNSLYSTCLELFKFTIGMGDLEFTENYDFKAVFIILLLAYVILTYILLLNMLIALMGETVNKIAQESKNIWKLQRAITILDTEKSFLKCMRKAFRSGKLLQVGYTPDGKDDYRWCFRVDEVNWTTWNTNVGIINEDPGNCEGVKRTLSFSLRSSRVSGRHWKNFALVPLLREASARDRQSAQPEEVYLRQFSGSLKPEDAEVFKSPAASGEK
# protocolSummary: TRPV1 agonist and antagonist Ca2+ flux assay (FLIPR, Fluo-8) in HEK293 cells stably expressing human TRPV1
# Type: cell-based
# conditionLabel: tested at 1 μM; normalized to Emax of capsaicin (3 μM)
Quick list: hTRPV1 % Activation (n = 3) per entry.

These recorded examples may help you get a feel for the data.
[
  {
    "compound": "O=C(NC1CCCCCC1)c1ccc(-c2ccccc2)cc1 [Compound 5]",
    "hTRPV1 % Activation (n = 3)": "0.6 ± 1.5%"
  },
  {
    "compound": "O=C(NC1CCC2(CCCCC2)CC1)c1ccc(-c2ccccc2)cc1 [Compound 13]",
    "hTRPV1 % Activation (n = 3)": "0.7 ± 0.2%"
  },
  {
    "compound": "O=C(NC1CCc2ccccc2C1)c1ccc(-c2ccccc2)cc1 (stereo not shown) [Compound 11]",
    "hTRPV1 % Activation (n = 3)": "−0.7 ± 1.5%"
  }
]

API: the following record is the query input.
Prompt: Could you tell me which hTRPV1 % Activation (n = 3) is on file for O=C(NC1CCCCCCC1)c1ccc(-c2ccccc2)cc1 [Compound 7] ?
Response: −3.2 ± 0.6%
